Tested on: MOLM-13
Test: Cell growth inhibition, 4-day proliferation assay, MOLM-13
Assay type: cell-based
Conditions: Homo sapiens, MOLM-13, 96 h, read-out: Cell Viability (IC50, μM) MOLM-13
measured property: IC50 (µM)

• CCOC(=O)N1Cc2c(sc(C)c2Cc2ccccc2)-n2c(C)nnc2[C@@H]1C [Cpd. No. 18] = 4.3
• Cc1nnc2n1-c1ccc(Cl)c(Cc3ccccc3)c1COC2 [Cpd. No. 71] = 3.8
• Cc1nnc2n1-c1sc(C#Cc3cccnc3)c(Cc3ccccc3)c1COC2 [Cpd. No. 88] = 0.12

* * *

Consider the following compounds and their measured IC50 readings.
Molecular target: recombinant BRD4 BD1 (Homo sapiens)
Construct: recombinant BRD4 BD1 and BRD4 BD2 proteins
Test: Competitive fluorescence-polarization (FP) binding assay, BRD4 BD1
Settings: FP competitive binding; protein 10 nM, probe 1.5 nM; read-out: IC50 (nM) BRD4 BD1
measured property: IC50 (nM)

• Cc1sc2c(c1C1=CCCc3ccc(F)cc31)COCc1nnc(C)n1-2 = 289
• C#Cc1ccc2c(c1Cc1ccccc1)COCc1nnc(C)n1-2 = 150
• Cc1sc2c(c1Cc1ccccc1)CN[C@H](C)c1nnc(C)n1-2 = 1080
• C=C(c1ccccc1)c1cccc2c1COCc1nnc(C)n1-2 = 3530
• Cc1sc2c(c1Cc1ccc(Cl)cc1)COCc1nnc(C)n1-2 = 88.4
• Cc1sc2c(c1Cc1cc(F)cc(F)c1)COCc1nnc(C)n1-2 = 313
• COC(=O)C[C@H]1c2nnc(C)n2-c2sc(C)c(Cc3ccccc3)c2CN1C(=O)OCc1ccccc1 = 23800
• Cc1nnc2n1-c1cccc(C(C)c3ccccc3)c1COC2 (stereo not shown) = 807
• Cc1sc2c(c1Br)COCc1nnc(C)n1-2 = 23200
